target: UniProtKB Q16819
assay.text: Meprin α assay, fluorogenic substrate (Mca)-YVADAPK-(K-ε-Dnp), 384 and 1536 well plate formats
Type: biochemical
property: IC50 (nM)

>>> observed_measurement("O=C(COc1ccc(Cl)cc1Cl)NO [Compound 1596857]")
1180

----------
target: meprin α (Homo sapiens)
Sequence (Q16819 66-593 limits assumed): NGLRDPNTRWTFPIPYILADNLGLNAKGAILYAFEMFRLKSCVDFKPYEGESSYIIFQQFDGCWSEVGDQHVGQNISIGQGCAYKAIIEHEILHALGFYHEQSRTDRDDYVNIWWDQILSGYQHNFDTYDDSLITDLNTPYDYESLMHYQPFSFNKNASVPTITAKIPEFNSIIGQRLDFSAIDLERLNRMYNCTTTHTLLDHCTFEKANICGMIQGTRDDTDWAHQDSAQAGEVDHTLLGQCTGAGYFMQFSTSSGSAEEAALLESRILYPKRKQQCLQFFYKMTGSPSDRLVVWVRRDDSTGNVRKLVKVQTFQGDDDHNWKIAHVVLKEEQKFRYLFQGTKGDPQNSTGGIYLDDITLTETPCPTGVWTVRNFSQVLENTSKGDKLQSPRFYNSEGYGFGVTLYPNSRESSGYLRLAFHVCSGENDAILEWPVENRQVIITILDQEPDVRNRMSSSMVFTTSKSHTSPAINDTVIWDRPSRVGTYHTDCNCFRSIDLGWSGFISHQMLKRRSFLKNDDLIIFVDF
assay.text: Meprin α assay, fluorogenic substrate (Mca)-YVADAPK-(K-ε-Dnp), 384 and 1536 well plate formats
Format: biochemical
experimental.parameters: 1536 wpf; enzyme 0.32nM; time 30 min; read-out: Actinonin IC50
property: IC50 (nM)

>>> observed_measurement("CCCCC[C@H](CC(=O)NO)C(=O)N[C@H](C(=O)N1CCC[C@H]1CO)C(C)C")
5.18
